Tested on: LN229 glioblastoma cell line
Assay: MTT assay, LN229
Assay type: cell-based, human
Settings: Homo sapiens, LN-229, LN229, 48 h, read-out: IC50 (50% inhibition of cell growth)
Measured parameter: IC50

Given "CC(C)C[C@H](NC(=O)[C@H](Cc1ccccc1)NC(=O)c1cnccn1)B(O)O" , state its recorded IC50.
< 5 nM
